- target.entity: HA of influenza B virus ca B/Yamanashi/166/98 (yamagata) (influenza B virus B/Yamanashi/166/98)
- assay.overview: cell-based or functional assay
readout.name: Neutralization (Ave IC50 ug/ml) (µg/mL)
Write the value in µg/mL as a bare number.

Neutralization (Ave IC50 ug/ml) lookup needed for FBD-56 (antibody, V domains shown) VH: EVQLVESGGHLVQPGRSLRLSCAASGFTFEDYAMNWVRQAPGKGLEWVSVISWDSGRIGYADSVKGRFTISRDNAKNSSYLQMNSLRPEDTALYYCVRDMLAYYSDNSGKKYNVYGMDVWGQGTTVTVSS VL: EIVLTQSPATLSLSPGERATLSCRASQSVSTFLAWYQQKPGQAPRLLMYDASNRATGIPARFSGSGSGTDFTLTISSLEPEDFAIYYCQQRSHWPPIFGQGTRLEIK , thanks.
0.133
